B1: TPR t1 (parent)
chain: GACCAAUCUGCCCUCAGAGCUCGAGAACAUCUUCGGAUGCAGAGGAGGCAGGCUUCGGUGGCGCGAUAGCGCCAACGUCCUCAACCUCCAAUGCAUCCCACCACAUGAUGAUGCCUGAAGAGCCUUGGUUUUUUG

variants of: B1; test: polymerase ribozyme fitness, log enrichment relative to wild type (log ratio); higher = more active; in vitro selection for triplet polymerase activity
Classification scheme (polymerase ribozyme fitness (log ratio)): low value = under -4, medium value = from -4 up to -2, high value = -2 and over

// known answers, use as guide
Query string: Exercise: read the entry G36C A66G C72U and state which class it falls under.
Result string: medium value

Query string: Form: Item = G57A A95C ; Class = ?
Result string: high value

Query string: Which bin, given its polymerase ribozyme fitness (log ratio), does A37G G44C G48U C73A occupy?
Result string: medium value

Query string: // bin(item) where item = G39U G45A
Result string: medium value

Query string: Assign a bin to U78G G113A C124G
Result string: high value

Query string: Just checking, what class would you give C15G G44C G57U here?
Result string: medium value

Query string: Each variant maps to one class by polymerase ribozyme fitness (log ratio). Which class for G52A G60U C104G ?
Result string: low value

Query string: Sort into band: A90U U112G
Result string: medium value

Others:
Query string: Note: place this variant into its band. Item: G93A C98U C124G
Result string: high value

Query string: Kindly identify the class of A26G A29G C80G C86U A119G .
Result string: medium value

Query string: GET /class?item= U130A
Result string: high value

Query string: For this variant, which bin applies? C13A C62A G120U
Result string: high value

Query string: Lab note: sort C72A C124A into the matching polymerase ribozyme fitness (log ratio) band.
Result string: high value

Query string: Determine which band this variant sits in: A37C C64U U92G
Result string: medium value

Query string: Categorize the following entry: C13U G110U
Result string: high value

Query string: In plain terms, what class is G45A C62A U112G C115G ?
Result string: medium value

Query string: // bin(item) where item = A46U G117A
Result string: medium value
